tested on: Monochoria vaginalis, Presl.; experiment: Preemergence weed control under flooded paddy conditions, MOOVA (Monochoria); assay type: in vivo; conditions: 0.0620 kg/ha; preemergence, flooded paddy; rated three to four weeks after treatment
endpointLabel: MOOVA herbicidal rating

[[record]]
compound = "COC(=O)C(C)Oc1cc(Cl)c(C)cc1-c1nsc2ccc(-n3c(=O)cc(C(F)(F)F)n(C)c3=O)cc12 (stereo not shown) [Example 492]"
targetortestsystem = "Monochoria vaginalis, Presl."
observedresult = 6.0

[[record]]
compound = "CCC(C(=O)OCc1nsc2ccc(-n3c(=O)cc(C(F)(F)F)n(C)c3=O)cc12)c1ccccc1 (stereo not shown) [Example 473]"
targetortestsystem = "Monochoria vaginalis, Presl."
observedresult = 6.0

[[record]]
compound = "Cn1c(C(F)(F)F)cc(=O)n(-c2ccc3snc(COC(=O)c4ccc(Cl)nc4)c3c2)c1=O [Example 481]"
targetortestsystem = "Monochoria vaginalis, Presl."
observedresult = 7.0

[[record]]
compound = "Cn1c(C(F)(F)F)cc(=O)n(-c2ccc3snc(C(=O)NS(=O)(=O)/C=C/c4ccccc4)c3c2)c1=O [Example 501]"
targetortestsystem = "Monochoria vaginalis, Presl."
observedresult = 6.0


====

tested on: Oryza sativa, (L.) Tebonnet; test: Rice tolerance to post-transplant applications under flooded paddy conditions (Example 187), ORYSAT (Rice, Tebonnet); conditions: 0.0320 kg/ha, herbicidal effect rating 0-9, three to four weeks after treatment
endpointLabel: ORYSAT

[[record]]
compound = "CCOCOCc1nsc2ccc(-n3c(=O)cc(C(F)(F)F)n(C)c3=O)cc12 [Example 455]"
endpointlabel = "ORYSAT"
observedresult = 6.0

[[record]]
compound = "COC(=O)C(C)Oc1cc2c(cc1-c1nsc3ccc(-n4c(=O)cc(C(F)(F)F)n(C)c4=O)cc13)CCC2 (stereo not drawn) [Example 435]"
endpointlabel = "ORYSAT"
observedresult = 2.0

[[record]]
compound = "COc1cc(C(Br)Br)ccc1-c1nsc2ccc(-n3c(=O)cc(C(F)(F)F)n(C)c3=O)cc12 [Example 447]"
endpointlabel = "ORYSAT"
observedresult = 4.0

[[record]]
compound = "CN(Cc1ccc(Cl)cc1)S(=O)(=O)NC(=O)c1nsc2ccc(-n3c(=O)cc(C(F)(F)F)n(C)c3=O)cc12 [Example 420]"
endpointlabel = "ORYSAT"
observedresult = 0.0

[[record]]
compound = "C#CCOC(=O)COc1cc2c(cc1-c1nsc3ccc(-n4c(=O)cc(C(F)(F)F)n(C)c4=O)cc13)CCC2 [Example 436]"
endpointlabel = "ORYSAT"
observedresult = 3.0

[[record]]
compound = "Cn1c(C(F)(F)F)cc(=O)n(-c2ccc3snc(C(=O)NS(=O)(=O)Cc4ccc(OC(F)(F)F)cc4)c3c2)c1=O [Example 406]"
endpointlabel = "ORYSAT"
observedresult = 0.0

[[record]]
compound = "CCC(C#N)(CC)c1nsc2ccc(-n3c(=O)cc(C(F)(F)F)n(C)c3=O)cc12 [Example 445]"
endpointlabel = "ORYSAT"
observedresult = 5.0

[[record]]
compound = "Cc1ccc(OCC(=O)N(C)S(C)(=O)=O)c(-c2nsc3ccc(-n4c(=O)cc(C(F)(F)F)n(C)c4=O)cc23)c1 [Example 437]"
endpointlabel = "ORYSAT"
observedresult = 4.0

[[record]]
compound = "Cn1c(C(F)(F)F)cc(=O)n(-c2ccc3snc(C(=O)C(C)(C)C)c3c2)c1=O [Example 432]"
endpointlabel = "ORYSAT"
observedresult = 6.0

[[record]]
compound = "CCOCN(C(=O)c1nsc2ccc(-n3c(=O)cc(C(F)(F)F)n(C)c3=O)cc12)S(=O)(=O)Cc1ccccc1 [Example 440]"
endpointlabel = "ORYSAT"
observedresult = 3.0

[[record]]
compound = "Cc1ccc(OCC(=O)O)c(-c2noc3cc(F)c(-n4c(=O)cc(C(F)(F)F)n(C)c4=O)cc23)c1 [Example 425]"
endpointlabel = "ORYSAT"
observedresult = 4.0

[[record]]
compound = "Cn1c(C(F)(F)F)cc(=O)n(-c2ccc3snc(C4(C#N)CC4)c3c2)c1=O [Example 446]"
endpointlabel = "ORYSAT"
observedresult = 6.0

[[record]]
compound = "CN(/N=C/c1nsc2ccc(-n3c(=O)cc(C(F)(F)F)n(C)c3=O)cc12)c1ccccc1 [Example 412]"
endpointlabel = "ORYSAT"
observedresult = 0.0

[[record]]
compound = "CN(C(=O)COc1ccccc1-c1nsc2ccc(-n3c(=O)cc(C(F)(F)F)n(C)c3=O)cc12)S(C)(=O)=O [Example 438]"
endpointlabel = "ORYSAT"
observedresult = 4.0

[[record]]
compound = "CCCCC(=O)c1nsc2ccc(-n3c(=O)cc(C(F)(F)F)n(C)c3=O)cc12 [Example 431]"
endpointlabel = "ORYSAT"
observedresult = 3.5


====

Listed below: ORYSAT herbicidal rating (rice tolerance) values for each entry.
system: Oryza sativa, (L.) Tebonnet; assay: Rice tolerance to post-transplant applications under flooded paddy conditions (Example 187), ORYSAT (Rice, Tebonnet); conditions: 0.2500 kg/ha, rated three to four weeks after treatment
endpointLabel: ORYSAT herbicidal rating (rice tolerance)

[[record]]
molecule = "COc1ccc(C)cc1-c1nsc2cc(F)c(-n3c(=O)cc(C(F)(F)F)n(C)c3=O)cc12 [Example 462]"
targetortestsystem = "Oryza sativa, (L.) Tebonnet"
observedresult = 6.0

[[record]]
molecule = "Cn1c(C(F)(F)F)cc(=O)n(-c2ccc3snc(C(=O)NO)c3c2)c1=O [Example 471]"
targetortestsystem = "Oryza sativa, (L.) Tebonnet"
observedresult = 5.0

[[record]]
molecule = "Cn1c(C(F)(F)F)cc(=O)n(-c2ccc3snc(C(=O)NS(=O)(=O)CCc4ccccc4)c3c2)c1=O [Example 485]"
targetortestsystem = "Oryza sativa, (L.) Tebonnet"
observedresult = 5.0

[[record]]
molecule = "CN(C)S(=O)(=O)NC(=O)c1nsc2ccc(-n3c(=O)cc(C(F)(F)F)n(C)c3=O)cc12 [Example 507]"
targetortestsystem = "Oryza sativa, (L.) Tebonnet"
observedresult = 5.0

[[record]]
molecule = "CC(C)N(C(C)C)S(=O)(=O)NC(=O)COc1ccccc1-c1nsc2ccc(-n3c(=O)cc(C(F)(F)F)n(C)c3=O)cc12 [Example 512]"
targetortestsystem = "Oryza sativa, (L.) Tebonnet"
observedresult = 2.0

[[record]]
molecule = "CC(C)c1nsc2ccc(-n3c(=O)cc(C(F)(F)F)n(C)c3=O)cc12 [Example 499]"
targetortestsystem = "Oryza sativa, (L.) Tebonnet"
observedresult = 9.0

[[record]]
molecule = "CN(C(=O)c1nsc2ccc(-n3c(=O)cc(C(F)(F)F)n(C)c3=O)cc12)S(=O)(=O)Cc1ccccc1 [Example 494]"
targetortestsystem = "Oryza sativa, (L.) Tebonnet"
observedresult = 0.0

[[record]]
molecule = "Cn1c(C(F)(F)F)cc(=O)n(-c2ccc3snc(C(=O)NS(=O)(=O)Cc4cccc(Cl)c4)c3c2)c1=O [Example 486]"
targetortestsystem = "Oryza sativa, (L.) Tebonnet"
observedresult = 6.0

[[record]]
molecule = "COc1cc(Cl)c(C)cc1-c1nsc2ccc(-n3c(=O)cc(C(F)(F)F)n(C)c3=O)cc12 [Example 506]"
targetortestsystem = "Oryza sativa, (L.) Tebonnet"
observedresult = 2.0

[[record]]
molecule = "Cc1cccc(CS(=O)(=O)NC(=O)c2nsc3ccc(-n4c(=O)cc(C(F)(F)F)n(C)c4=O)cc23)c1 [Example 483]"
targetortestsystem = "Oryza sativa, (L.) Tebonnet"
observedresult = 6.0

[[record]]
molecule = "Cn1c(C(F)(F)F)cc(=O)n(-c2ccc3snc(COCOCc4ccccc4)c3c2)c1=O [Example 461]"
targetortestsystem = "Oryza sativa, (L.) Tebonnet"
observedresult = 6.0

[[record]]
molecule = "COC(=O)C(C)(C)c1nsc2ccc(-n3c(=O)cc(C(F)(F)F)n(C)c3=O)cc12 [Example 490]"
targetortestsystem = "Oryza sativa, (L.) Tebonnet"
observedresult = 9.0

[[record]]
molecule = "CC(C)N(C(C)C)S(=O)(=O)NC(=O)c1nsc2ccc(-n3c(=O)cc(C(F)(F)F)n(C)c3=O)cc12 [Example 500]"
targetortestsystem = "Oryza sativa, (L.) Tebonnet"
observedresult = 2.0

[[record]]
molecule = "Cn1c(C(F)(F)F)cc(=O)n(-c2ccc3snc(C(C)(C)C(=O)OCc4ccccn4)c3c2)c1=O [Example 510]"
targetortestsystem = "Oryza sativa, (L.) Tebonnet"
observedresult = 8.0

[[record]]
molecule = "Cn1c(C(F)(F)F)cc(=O)n(-c2ccc3snc(C(C)(C)C(N)=O)c3c2)c1=O [Example 509]"
targetortestsystem = "Oryza sativa, (L.) Tebonnet"
observedresult = 7.0


====

test system: Monochoria vaginalis, Presl.; experiment: Preemergence weed control under flooded paddy conditions, MOOVA (Monochoria); type: in vivo; settings: Rate 0.0320 kg/ha; preemergence, flooded paddy; rated three to four weeks after treatment; on herbicidal effect rating, MOOVA: meaning of each grade not given here
endpointLabel: herbicidal effect rating, MOOVA

[[record]]
molecule = "Cn1c(C(F)(F)F)cc(=O)n(-c2ccc3snc(COC(=O)Cc4ccccc4)c3c2)c1=O"
observedresult = 9.0

[[record]]
molecule = "Cn1c(C(F)(F)F)cc(=O)n(-c2ccc3snc(C(C#N)(Cc4ccccc4)Cc4ccccc4)c3c2)c1=O"
observedresult = 7.0

[[record]]
molecule = "Cc1ccc(OC(C)C(=O)NS(=O)(=O)C(C)C)c(-c2nsc3ccc(-n4c(=O)cc(C(F)(F)F)n(C)c4=O)cc23)c1 (stereo not shown)"
observedresult = 0.0

[[record]]
molecule = "Cn1c(C(F)(F)F)cc(=O)n(-c2ccc3snc(CSc4ccccc4)c3c2)c1=O"
observedresult = 6.0

